TESTED_TARGET: T1, human LIGHT (TNFSF14), full length, membrane-bound (214E allele) (human, UniProt O43557 1-240)
T1 construct: also called membrane LIGHT; human membrane LIGHT
T1 sequence (O43557 whole entry K214E): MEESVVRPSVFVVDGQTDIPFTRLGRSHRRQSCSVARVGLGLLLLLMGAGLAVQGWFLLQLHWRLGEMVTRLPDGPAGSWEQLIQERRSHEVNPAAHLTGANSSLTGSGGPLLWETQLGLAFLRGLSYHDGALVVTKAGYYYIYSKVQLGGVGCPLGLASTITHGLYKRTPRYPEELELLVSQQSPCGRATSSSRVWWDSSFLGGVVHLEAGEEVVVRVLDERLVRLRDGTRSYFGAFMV
METHOD: flow cytometry, EL4-LIGHT cells
# strict inequality: EC50 < 0.3 nM yields 1 (yes), everything else yields 0 (no)

// known answers, use as guide
{"BINDER": "3D12_var16 (antibody, human IgG4, V domains shown, human IgG4 (S241P, L248E, Kabat); also called 3D12 VL4VH4 (var16)) VH: QVQLVQSGAEVKKPGASVKVSCKASGYTFTDSEMHWVRQAPGQGLEWMGEIDPETGGTAYAQKFQGRVTLTADKSTSTAYMELSSLRSEDTAVYYCSRETDYFFDYWGQGTLVTVSS VL: DIQMTQSPSSLSASVGDRVTITCRASENIYGALNWYQQKPGKAPKLLIYGATNLAEGVPSRFSGSGSGRDYTLTISSLQPEDVATYYCQNVLSTPWTFGQGTKLEIKR", "DISCRETE_LABEL": "1 (yes)"}
{"BINDER": "3B04_var11 (antibody, human IgG4, V domains shown, human IgG4 (S241P, L248E, Kabat); also called 3B04 VL3VH3 (var11)) VH: QVQLVQSGAEVKKPGASVKVSCKASGYTFTDYEMHWVRQAPGQGLEWMGEIDPETGDTAYAQKFQGRVTLTADKSTSTAYMEFSSLRSEDTAVYYCSRETDYFFDYWGQGTLVTVSS VL: DIQMTQSPSSLSASVGDRVTITCGASENIYGALNWYQQKPGKAPKLLIYGATNLADGVPSRFSGSGSGRDYTLTISSLQPEDFATYYCQNVLTTPWTFGQGTKLEIKR", "DISCRETE_LABEL": "0 (no)"}
{"BINDER": "3B04_var8 (antibody, human IgG4, V domains shown, human IgG4 (S241P, L248E, Kabat); also called 3B04 VL2VH4 (var8)) VH: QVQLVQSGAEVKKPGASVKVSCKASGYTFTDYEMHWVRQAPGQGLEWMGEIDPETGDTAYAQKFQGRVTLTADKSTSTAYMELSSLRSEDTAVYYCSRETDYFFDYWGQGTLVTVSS VL: DIQMTQSPSSLSASVGDRVTITCGASENIYGALNWYQRKQGKAPKLLIYGATNLADGVPSRFSGSGSGRDYTLTISSLQPEDFATYYCQNVLTTPWTFGQGTKLEIKR", "DISCRETE_LABEL": "1 (yes)"}
{"BINDER": "3B04_var13 (antibody, human IgG4, V domains shown, human IgG4 (S241P, L248E, Kabat); also called 3B04 VL4VH1 (var13)) VH: QVQLVQSGAEVKKPGASVKVSCKASGYTFTDYEMHWVRQAPGQGLEWIGEIDPETGDTAYSQKFKGRATLTADKSTSTAYMEFSSLRSEDTAVYYCSRETDYFFDYWGQGTLVTVSS VL: DIQMTQSPSSLSASVGDRVTITCRASENIYGALNWYQQKPGKAPKLLIYGATNLAEGVPSRFSGSGSGRDYTLTISSLQPEDFATYYCQNVLTTPWTFGQGTKLEIKR", "DISCRETE_LABEL": "0 (no)"}

We now examine a further binder.
Ask | Does the reported EC50 of the following binder sit strictly below 0.3 nM? 3D12_var1 (antibody, human IgG4, V domains shown, human IgG4 (S241P, L248E, Kabat); also called 3D12 VL1VH1 (var1)) VH: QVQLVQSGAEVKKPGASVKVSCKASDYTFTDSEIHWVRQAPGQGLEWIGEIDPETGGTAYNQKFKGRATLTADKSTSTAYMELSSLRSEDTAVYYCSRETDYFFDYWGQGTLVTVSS VL: DIQMTQSPSSLSASVGDRVTITCGASENIYGALNWYQRKQGKAPQLLIYGATNLADGVSSRFSGSGSGRDYTLTISSLQPEDVATYYCQNVLSTPWTFGQGTKLEIKR
Reply | 1 (yes)
